Data provenance is patent US12358918B2.

System: MDA-MB-468 and ZR51 breast cancer and JHH7 liver cancer cell lines
ENDPOINT_LABEL: AHR-dependence of the cytotoxic response

[[record]]
molecule = "O=C(Cc1ccccc1)Nc1nc2ccc(Cl)cc2c2nc(-c3ccco3)nn12 [MRS-1220, reference compound]"
assay_target = "MDA-MB-468 and ZR51 breast cancer and JHH7 liver cancer cell lines"
result = "dependence upon AHR"

[[record]]
molecule = "Nc1nc2cc(Cl)ccc2c2nc(-c3ccco3)nn12 [BRO-026]"
assay_target = "MDA-MB-468 and ZR51 breast cancer and JHH7 liver cancer cell lines"
result = "dependence upon AHR"

[[record]]
molecule = "Clc1cccc2ncn3nc(-c4ccco4)nc3c12"
assay_target = "MDA-MB-468 and ZR51 breast cancer and JHH7 liver cancer cell lines"
result = "dependence upon AHR"

[[record]]
molecule = "Cc1nc2cnccc2c2nc(-c3ccco3)nn12 [B7]"
assay_target = "MDA-MB-468 and ZR51 breast cancer and JHH7 liver cancer cell lines"
result = "dependence upon AHR"

[[record]]
molecule = "Nc1nc2ccc(Cl)cc2c2nc(-c3ccco3)nn12 [CGS-15943, reference compound]"
assay_target = "MDA-MB-468 and ZR51 breast cancer and JHH7 liver cancer cell lines"
result = "dependence upon AHR"


Documented AHR-dependence of the cytotoxic response of O=c1[nH]c2ccccc2c2nc(-c3ccco3)nn12 : dependence upon AHR

Documented AHR-dependence of the cytotoxic response of CSc1nc2ccccc2c2nc(-c3ccco3)nn12 : dependence upon AHR

Documented AHR-dependence of the cytotoxic response of O=Cc1c2[nH]c3ccccc3c2cc2[nH]c3ccccc3c12 [FICZ, reference compound] : dependence upon AHR

Documented AHR-dependence of the cytotoxic response of Nc1nc2c(cnn2CCc2ccccc2)c2nc(-c3ccco3)nn12 [SCH-58261] : dependence upon AHR

Documented AHR-dependence of the cytotoxic response of Cc1nc2cccc(Cl)c2c2nc(-c3ccco3)nn12 [B1] : dependence upon AHR

Documented AHR-dependence of the cytotoxic response of COc1ccc2nc(N)n3nc(-c4ccco4)nc3c2c1 [A15] : dependence upon AHR
